System: H929 multiple myeloma tumor line
Assay: In vitro cytotoxicity, MTT assay (Example B, Method A)
Format: cell-based
Conditions: H929 cells, 48 hours exposure, read-out: C50
Experimental: The cytotoxicity studies were carried out on the H929 multiple myeloma tumor line. The cells are distributed onto microplates and exposed to the test compounds for 48 hours. The cell viability is then quantified by a colorimetric assay, the Microculture Tetrazolium Assay (Carmichael et al, Cancer Res. 1987, 47, 939-942). The results are expressed in C50 which means concentration corresponding to […] of effect/inhibition.
pIC50: −log10 of the molar value.
Kindly return t if reported pIC50 is no lower than 5; return f if it is lower.

Example results:
>>> assigned_category("CC(CC1Cc2ccccc2[C@]12CC[C@@](Nc1cccc(Cl)c1)(C(=O)O)CC2)C1CCC(=O)CC1 (single isomer, unassigned) [Example 571]")
"f"
>>> assigned_category("C[C@@H](COc1ccnc2c1[C@H](C)CCC2)CC1Cc2c(Cl)c(F)ccc2[C@]12CC[C@@](Nc1cccc(Cl)c1)(C(=O)O)CC2 (single isomer, unassigned) [Example 747]")
"t"

# ---- query molecule ----
Determine whether measured pIC50 meets or exceeds 5 for C[C@@H](COc1ccnc2c1[C@H](C)CCC2)CC1Cc2c(F)cccc2[C@]12CC[C@@](Nc1cccc(Cl)c1)(C(=O)O)CC2 (single isomer, unassigned) t

---

target: Cy5-labelled Mcl1 (amino acids 171-321) C286S protein (UniProtKB Q07820) (Homo sapiens (Human), UniProt Q07820, C286S); experiment: Inhibition of Mcl-1 by the fluorescence quenching assay (Example A, Method B); format: binding
Sequence (Q07820 171-321 C286S): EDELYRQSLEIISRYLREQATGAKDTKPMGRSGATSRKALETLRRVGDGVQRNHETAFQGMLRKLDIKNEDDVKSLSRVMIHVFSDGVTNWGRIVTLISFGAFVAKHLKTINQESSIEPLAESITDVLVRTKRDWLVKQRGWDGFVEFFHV
parameter: Ki (nM)
The reply should contain only the number, in nM.

Recorded Ki, per entry:
>>> measurement("Cc1cn(C[C@H](C)C[C@H]2Cc3ccccc3[C@]23CC[C@@](Nc2cccc(Cl)c2)(C(=O)O)CC3)c2c(c1=O)C(C)CCC2 (single isomer, unassigned) [Example 639]")
37.2
>>> measurement("C[C@@H](COc1ccnc2c1[C@H](C)CCC2)C[C@H]1Cc2ccc(COC3CCCO3)cc2[C@]12CC[C@@](Nc1cccc(Cl)c1)(C(=O)O)CC2 (stereo partly shown)")
0.0505
>>> measurement("C[C@@H](COc1ccnc2c1[C@H](C)CCC2)C[C@H]1Cc2cc3c(cc2[C@]12CC[C@@](Nc1cccc(Cl)c1)(C(=O)O)CC2)O[C@@H](C)CCO3")
0.00728
>>> measurement("C[C@H]1Cc2c(OC[C@H](C)C[C@H]3Cc4ccccc4[C@]34CC[C@@](Nc3cccc(Cl)c3)(C(=O)O)CC4)ccnc2[C@H](O)C1 (racemic)")
41.6

Endpoint output: Ki of "C[C@@H]1CCCc2nccc(OC[C@@H](C[C@H]3Cc4ccccc4[C@]34CC[C@@](Nc3cccc(Cl)c3)(C(=O)O)CC4)c3ccccc3)c21" . Value? 0.259

Endpoint output: Ki of O=C(O)[C@]1(Nc2cccc(Cl)c2)CC[C@@]2(CC1)c1ccccc1CC2CC(COc1ccnc2ccsc12)Cc1ccccc1 (single isomer, unassigned) [Example 563] . Value? 43.5

Endpoint output: Ki of C[C@@H]1CCCc2nccc(OCC(F)CC3Cc4ccccc4[C@]34CC[C@@](Nc3cccc(Cl)c3)(C(=O)O)CC4)c21 (single isomer, unassigned) [Example 510] . Value? 1.51

Endpoint output: Ki of "C[C@@H](COc1ccnc2c1[C@H](C)CCC2)CC1=Cc2cc(F)ccc2[C@]12CC[C@@](Nc1cccc(Cl)c1)(C(=O)O)CC2" . Value? 0.305

Endpoint output: Ki of "C[C@@H](COc1ccnc2c1[C@@H](C)CCC2)C[C@H]1Cc2cc(Cl)c(O)cc2[C@]12CC[C@@](Nc1cccc(Cl)c1)(C(=O)O)CC2" . Value? 3.42
